# Tested on: KAI3 (IL-2 2.5 ng/mL)
# test.description: relative IC50 (inflection point of fitted viability curve, relative to fitted max inhibition); higher = less sensitive
# condition.label: 72 h
relative IC50 by entry:
A number alone suffices; assume nM.

# query: relative IC50 of entry CS(=O)(=O)c1ccc(-c2cnc(N)c(C(=O)Nc3ccccc3)n2)cc1
332

What do we get for c1ccc2c(CCNc3ccc(Nc4ccncc4)cc3)c[nH]c2c1 ?
436

---

# Tested on: normal primary NK cells, pool 1 (3 donors) (IL-2 2.5 ng/mL)
# test.description: percent inhibition of viability; higher = more inhibition
# condition.label: 72 h; 1 nM
result.type: percent inhibition of viability (%)
A number alone suffices; assume %.

molecule="Cc1cnc(Nc2ccc(OCCN3CCCC3)cc2)nc1Nc1cccc(S(=O)(=O)NC(C)(C)C)c1 (max concentration tested 10000 nM)" result_type="percent inhibition of viability" recorded_result=2.15

Any idea what percent inhibition of viability came out for CNC(=O)c1ccc(N2C(=S)N(c3ccc(C#N)c(C(F)(F)F)c3)C(=O)C23CCC3)cc1F [RD162] (max concentration tested 10000 nM) on normal primary NK cells, pool 1 (3 donors) (IL-2 2.5 ng/mL)?
-2.22

What do we get for Cc1cc(C)c(CNC(=O)c2cc(-c3ccc(CN4CCOCC4)cc3)cc3c2cnn3C2CCCC2)c(=O)[nH]1 [EPZ-5687] (max concentration tested 10000 nM) ?
-2.66

What do we get for Nc1nc(F)nc2c1ncn2[C@@H]1O[C@H](CO)[C@@H](O)[C@@H]1O [Fludarabine] (max concentration tested 10000 nM) ?
6.23

What do we get for C[C@@H](Oc1cc(-n2cnc3ccc(CN4CCN(C)CC4)cc32)sc1C(N)=O)c1ccccc1C(F)(F)F (max concentration tested 10000 nM) ?
-0.02

What do we get for NC(=O)N1CCC(CC(=O)N2CCC([C@H]3c4ncc(Br)cc4CCc4cc(Cl)cc(Br)c43)CC2)CC1 [Lonafarnib] (max concentration tested 10000 nM) ?
-10.4

---

# Test system: YT (IL-2 2.5 ng/mL)
# test.description: percent inhibition of viability; higher = more inhibition
# condition.label: 72 h; 1 nM
percent inhibition of viability by entry:
A number alone suffices; assume %.

Known percent inhibition of viability results, listed for orientation:
molecule="O=c1[nH]cc(F)c(=O)[nH]1 [Fluorouracil] (max concentration tested 10000 nM)" measurement_target="YT (IL-2 2.5 ng/mL)" result_type="percent inhibition of viability" recorded_result=-7.37
molecule="CC[C@@H]1C(=O)N(C)c2cnc(Nc3ccc(C(=O)NC4CCN(C)CC4)cc3OC)nc2N1C1CCCC1 [BI 2536] (max concentration tested 1000 nM)" measurement_target="YT (IL-2 2.5 ng/mL)" result_type="percent inhibition of viability" recorded_result=-1.95
molecule="O=C(Nc1cccc(C(F)(F)F)c1)Nc1cc(S(=O)(=O)NC2CC2)ccc1-c1ccsc1 [AGI-6780] (max concentration tested 10000 nM)" measurement_target="YT (IL-2 2.5 ng/mL)" result_type="percent inhibition of viability" recorded_result=-2.18
molecule="Nc1cc(C(F)(F)F)c(-c2cc(N3CCOCC3)nc(N3CCOCC3)n2)cn1 [Buparlisib] (max concentration tested 10000 nM)" measurement_target="YT (IL-2 2.5 ng/mL)" result_type="percent inhibition of viability" recorded_result=-0.5
molecule="COc1cccc2cc(-c3nc([C@H]4CC[C@H](C(=O)O)CC4)n4ncnc(N)c34)[nH]c12 [OSI-027] (max concentration tested 10000 nM)" measurement_target="YT (IL-2 2.5 ng/mL)" result_type="percent inhibition of viability" recorded_result=2.96

Turning now to a further molecule:
# query: percent inhibition of viability of entry Cn1cc(-c2ccc3nnc(C(F)(F)c4ccc5ncccc5c4)n3n2)cn1 (max concentration tested 10000 nM)
2.08

meta.source: the supplement of paper PMC5908809
